measurement notes: Cytotoxicity against dog MDCK cells assessed as reduction in cell viability by MTT assay
Format: cell-based, Canis lupus familiaris
result type: CC50 (µM)

compound=O=c1cc(-c2cccc([N+](=O)[O-])c2)oc2ccccc12 experimental_result=269
compound=O=c1cc(-c2ccccc2Cl)oc2ccccc12 experimental_result=388
compound=O=C1/C(=C/c2ccccc2Cl)Oc2ccccc21 experimental_result=339
compound=COc1cccc(-c2cc(=O)c3ccccc3o2)c1 experimental_result=263
compound=O=C1/C(=C/c2ccc([N+](=O)[O-])cc2)Oc2ccccc21 experimental_result=213
compound=O=c1cc(-c2cccc(Cl)c2)oc2ccccc12 experimental_result=174
compound="COc1ccc(/C=C2\\Oc3ccccc3C2=O)cc1 [4'-METHOXY-AURONE]" experimental_result=169
compound="COc1ccccc1/C=C1\\Oc2ccccc2C1=O [(Z)-2'-METHOXYAURONE]" experimental_result=273
compound="CCC(CC)O[C@@H]1C=C(C(=O)O)C[C@H](N)[C@H]1NC(C)=O [OSELTAMIVIR CARBOXYLATE]" experimental_result=713
compound=O=C1/C(=C/c2cccc([N+](=O)[O-])c2)Oc2ccccc21 experimental_result=396
compound=COc1ccccc1-c1cc(=O)c2ccccc2o1 experimental_result=171
